Task for the reader: assign each of the following molecules its reported efficacy of cysteine peptide change.
- Test system: cysteine peptide Ac-RFAACAA-COOH
- experiment.summary: efficacy of cysteine peptide change (negative = depletion) (% activity); higher = less depletion
- measurement.setup: incubation time: 24 h
Give bare numbers.

Solved cases (4 shown):
molecule: CC(C)CP(=S)(S)CC(C)C [Sodium bis(2-methylpropyl)phosphinodithioate]
efficacy of cysteine peptide change: -92.6

molecule: CCCCCCCCCCCCO [1-Dodecanol]
efficacy of cysteine peptide change: 0

molecule: O=C(CCCCCCC(=O)Nc1ccccc1)NO [Vorinostat (SAHA)]
efficacy of cysteine peptide change: 0

molecule: CCCCNC(=O)OCC#CI [Carbamic acid, butyl-, 3-iodo-2-propynyl ester]
efficacy of cysteine peptide change: -92.5

Switching to the query record.
Query: Fill in the recorded efficacy of cysteine peptide change for this molecule, with cysteine peptide Ac-RFAACAA-COOH as test system: O=C(OCc1ccccc1)c1ccc(O)cc1 [Benzylparaben]
Response: 0
